// provenance: patent EP1377579B1

Experiment: in vivo
Details: male, Hsd:ICR (CD-1), mouse, plasma, intravenous, 3 mg/kg
measured.quantity: concentration at 8 h (ng/mL)

>>> readout_number("Cl.Cl.N[C@H]1CC[C@H](Nc2nc(NC3CCN(C(=O)Oc4ccc(Cl)cc4)CC3)c3ncn(C4CCCC4)c3n2)CC1 [compound 88, dihydrochloride]")
5.4
>>> readout_number("Cc1ccc(OC(=O)N2CCC(Nc3nc(N[C@H]4CC[C@H](N)CC4)nc4c3ncn4C3CCCC3)CC2)cc1.Cl.Cl [compound 82, dihydrochloride]")
12.3
>>> readout_number("Cl.Cl.N[C@H]1CC[C@H](Nc2nc(NC3CCN(S(=O)(=O)c4cccc(C(F)(F)F)c4)CC3)c3ncn(C4CCCC4)c3n2)CC1 [compound 112, dihydrochloride]")
13.6
>>> readout_number("Cl.Cl.N[C@H]1CC[C@H](Nc2nc(NC3CCN(C(=O)Nc4ccc(C(F)(F)F)cc4)CC3)c3ncn(C4CCCC4)c3n2)CC1 [compound 149, dihydrochloride]")
5.4
>>> readout_number("Cl.Cl.N[C@H]1CC[C@H](Nc2nc(NC3CCN(C(=O)Oc4ccc(F)cc4)CC3)c3ncn(C4CCCC4)c3n2)CC1 [compound 87, dihydrochloride]")
3.2
>>> readout_number("Cl.Cl.N[C@H]1CC[C@H](Nc2nc(NC3CCN(C(=O)Oc4ccc([N+](=O)[O-])cc4)CC3)c3ncn(C4CCCC4)c3n2)CC1 [compound 89, dihydrochloride]")
3.8
